target: S1P1 (Homo sapiens, UniProt P21453); assay: Tango β-arrestin Recruitment Assay in U2OS cells (Assay 2b); format: cell-based; parameters: linker with TEV protease (N1a) cleavage site (C); conditions: Tango β-arrestin Recruitment Assay, read-out: Assay 2b EC50
Sequence (P21453 whole entry): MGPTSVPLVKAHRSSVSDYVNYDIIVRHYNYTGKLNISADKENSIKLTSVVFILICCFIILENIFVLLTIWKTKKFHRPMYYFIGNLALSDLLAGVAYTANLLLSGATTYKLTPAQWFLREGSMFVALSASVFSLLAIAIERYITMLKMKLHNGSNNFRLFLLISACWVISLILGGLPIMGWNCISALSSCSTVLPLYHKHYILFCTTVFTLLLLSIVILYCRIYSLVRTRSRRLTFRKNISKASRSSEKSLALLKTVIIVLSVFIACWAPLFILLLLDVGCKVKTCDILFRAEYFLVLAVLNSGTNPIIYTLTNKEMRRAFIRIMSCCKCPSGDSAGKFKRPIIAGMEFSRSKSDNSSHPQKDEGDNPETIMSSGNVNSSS
Sequence (P32121 whole entry partner): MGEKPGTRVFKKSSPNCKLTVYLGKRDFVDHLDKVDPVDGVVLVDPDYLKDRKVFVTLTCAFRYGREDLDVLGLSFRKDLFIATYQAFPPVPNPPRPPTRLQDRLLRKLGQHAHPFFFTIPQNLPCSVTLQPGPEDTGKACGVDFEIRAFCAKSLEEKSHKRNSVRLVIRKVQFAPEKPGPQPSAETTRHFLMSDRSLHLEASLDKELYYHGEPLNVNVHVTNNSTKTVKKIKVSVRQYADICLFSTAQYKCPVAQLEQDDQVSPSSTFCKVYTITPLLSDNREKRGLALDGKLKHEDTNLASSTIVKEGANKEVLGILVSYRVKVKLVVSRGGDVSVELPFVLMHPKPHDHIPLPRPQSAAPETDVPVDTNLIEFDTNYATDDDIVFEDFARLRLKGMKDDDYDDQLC
EC50 overview

>  <Compound>
O=C(O)CCc1cc(Cl)c(-c2noc(-c3cn4cc(C(F)(F)F)cc(Br)c4n3)n2)cc1F [Entry 49]

>  <Assayed target>
S1P1 (Homo sapiens, UniProt P21453)

>  <Measured quantity>
EC50

>  <Reading>
≤ 0.1 µM

$$$$

Consider NCCOc1ccc(-c2noc(-c3cn4cc(C(F)(F)F)cc(Cl)c4n3)n2)c(Cl)c1 [Example 257] . Its measured EC50 is 0.1 to 0.5 µM

The recorded EC50 for NC(COc1cc(Cl)c(-c2nnc(-c3cn4cc(C(F)(F)F)cc(Cl)c4n3)s2)cc1F)COP(=O)(O)O (stereo not drawn) [Example 82] is ≤ 0.1 µM

###

Measured pEC50 values are reported for all entries that follow.
Biological target: S1P1 (Homo sapiens, UniProt P21453)
Assay: Tango β-arrestin Recruitment Assay in HEK293 cells (Assay 2a)
Type: cell-based
Design: linker with TEV protease (N1a) cleavage site (C); host or cells: HEK293, transiently transfected
Conditions: Tango β-arrestin Recruitment Assay, read-out: Assay 2a EC50
Protocol: For the Tango™ β-arrestin recruitment assay, the cytoplasmic C-terminus of S1P1 is tethered to the tTA transcriptional activator with a linker that contains a cleavage site for the N1a protease from tobacco etch virus (TEV protease). The C-terminus of the human β-arrestin2 protein is fused to TEV protease. […] Assay 1 is the CNG cAMP Assay as described in Biological Example 1. […] EC50's were measured unless otherwise noted. […]
pEC50: −log10 of the molar value.

Guide cases for pEC50, answers given:
>  <Molecule>
COc1cc(Cl)c2nc(-c3nc(-c4cc(F)c(CCC(=O)O)cc4Cl)no3)cn2c1 [Entry 61]

>  <Assayed target>
S1P1 (Homo sapiens, UniProt P21453)

>  <pEC50>
≥ 7.00

$$$$
>  <Molecule>
O=C(O)CCc1cc(Cl)c(-c2nnc(-c3cn4cc(I)cc(Cl)c4n3)s2)cc1F [Example 207]

>  <Assayed target>
S1P1 (Homo sapiens, UniProt P21453)

>  <pEC50>
≥ 7.00

$$$$
>  <Molecule>
O=P(O)(O)OC[C@H](O)COc1cc(Cl)c(-c2noc(-c3cn4cc(C(F)(F)F)cc(Cl)c4n3)n2)cc1Cl [Example 322]

>  <Assayed target>
S1P1 (Homo sapiens, UniProt P21453)

>  <pEC50>
≥ 7.00

$$$$

Record for CC(C)Oc1cc(Cl)c2nc(-c3nc(-c4cc(F)c(CCC(=O)O)cc4Cl)no3)cn2c1 [Example 301] under target or system S1P1 (Homo sapiens, UniProt P21453): pEC50 reported as ≥ 7.00

Known value: S1P1 (Homo sapiens, UniProt P21453) pEC50 of the molecule O=C(O)CCOc1ccc(-c2noc(-c3cn4cc(C(F)(F)F)cc(Cl)c4n3)n2)c(Cl)c1 [Example 255] equals 6.30 to 7.00

pEC50 of O=C(O)C(O)COc1cc(Cl)c(-c2noc(-c3cn4cc(C(F)(F)F)cc(Cl)c4n3)n2)cc1Cl (stereo not shown) [Entry 58] , assay on S1P1 (Homo sapiens, UniProt P21453), is ≥ 7.00

Measured pEC50 for this entry NCC(O)COc1cc(Cl)c(-c2noc(-c3cn4cc(C(F)(F)F)cc(Cl)c4n3)n2)cc1Cl (stereo not shown) [Example 226] on S1P1 (Homo sapiens, UniProt P21453): ≥ 7.00

Record for OCC(O)COc1ccc(-c2noc(-c3cn4cc(C(F)(F)F)cc(Cl)c4n3)n2)c(Cl)c1 (stereo not shown) [Example 194] under target or system S1P1 (Homo sapiens, UniProt P21453): pEC50 reported as ≥ 7.00

// molecule CC(O)COc1cc(Cl)c(-c2noc(-c3cn4cc(C(F)(F)F)cc(Cl)c4n3)n2)cc1Cl (stereo not shown) [Example 292] , assay S1P1 (Homo sapiens, UniProt P21453), pEC50 value: ≥ 7.00

###

Target: S1P1 (Homo sapiens)
Experiment: CNG cAMP Assay (Assay 1)
Type: cell-based
Parameters: host or cells: HEK293 cells expressing the CNG channel
Settings: read-out: Assay 1 EC50
Protocol: Frozen HEK293 cells expressing the CNG channel and S1P1 (BD Biosciences, San Jose, Calif.) were thawed and plated into the wells of a black, clear bottom, 384-well CellBind plate (Corning, Corning, N.Y.) at 14,000 cells per well. […] Test compounds were tested at maximum concentrations of 10 μM. […] The T90/T0 ratio was determined for each concentration of the test compounds. The percent agonist activity was determined as [(test compound−DMSO alone control)/(NECA alone control−DMSO alone control)*100]. […]
Sequence (P21453 whole entry): as the sequence (P21453 whole entry) above
Measured quantity: EC50

// known answers, use as guide
>  <Compound>
CC(C)Oc1cc(Cl)c2nc(-c3nc(-c4cc(F)c(CCC(=O)O)cc4Cl)no3)cn2c1

>  <EC50>
≤ 100 nM

$$$$
>  <Compound>
Oc1cc(Cl)c(-c2noc(-c3cn4cc(C(F)(F)F)cc(Cl)c4n3)n2)cc1Cl

>  <EC50>
≤ 100 nM

$$$$
>  <Compound>
Cc1cc(C(C)CC(=O)O)ccc1-c1noc(-c2cn3cc(C(F)(F)F)cc(Br)c3n2)n1 (stereo not shown)

>  <EC50>
≤ 100 nM

$$$$
>  <Compound>
Cc1cc(C2CC2C(=O)O)c(F)cc1-c1noc(-c2cn3cc(C(F)(F)F)cc(Cl)c3n2)n1 (stereo not shown)

>  <EC50>
≤ 100 nM

$$$$
>  <Compound>
Nc1ccc(-c2noc(-c3cn4cc(C(F)(F)F)cc(Cl)c4n3)n2)c(Cl)c1

>  <EC50>
≤ 100 nM

$$$$
>  <Compound>
O=C(O)CCc1ccc(-c2nnc(-c3cn4cc(C(F)(F)F)cc(Cl)c4n3)o2)c(Cl)c1

>  <EC50>
≤ 100 nM

$$$$

get_value(item= O=C(O)CCNc1ccc(-c2noc(-c3cn4cc(C(F)(F)F)cc(Cl)c4n3)n2)c(Cl)c1 , readout=EC50) returns 100 to 500 nM

The reported value for CC(CO)Oc1cc(Cl)c(-c2noc(-c3cn4cc(C(F)(F)F)cc(Cl)c4n3)n2)cc1F (stereo not shown) in terms of EC50 is ≤ 100 nM

Value of measured EC50 for the entry Cc1cc(C#N)c2nc(-c3nc(-c4cc(F)c(CCC(=O)O)cc4Cl)no3)cn2c1 : ≤ 100 nM

Value of EC50 reported for the compound OCC(O)COc1cc(Cl)c(-c2nnc(-c3cn4cc(C(F)(F)F)cc(Cl)c4n3)s2)cc1F (stereo not shown) is ≤ 100 nM

###

molecular target: S1P1 (Homo sapiens, UniProt P21453); test: CNG cAMP Assay (Assay 1); assay type: cell-based; set-up: host or cells: HEK293 cells expressing the CNG channel; conditions: read-out: Assay 1 EC50
Measured quantity: EC50

Known results for compounds:
>  <Compound>
Oc1ccc(-c2noc(-c3cn4cc(C(F)(F)F)cc(Cl)c4n3)n2)c(Cl)c1 [Example 187]

>  <Reading>
≤ 100 nM

$$$$
>  <Compound>
O=C(O)CCc1cc(Cl)c(-c2noc(-c3cn4cc(Br)cc(Cl)c4n3)n2)cc1F [Entry 64]

>  <Reading>
≤ 100 nM

$$$$
>  <Compound>
FC(F)(F)c1cc(Cl)c2nc(-c3nc(-c4cccc5[nH]ccc45)no3)cn2c1 [Example 162]

>  <Reading>
≤ 100 nM

$$$$

// EC50 value for NC(CO)COc1ccc(-c2noc(-c3cn4cc(C(F)(F)F)cc(Cl)c4n3)n2)c(Cl)c1 (stereo not shown) [Example 213] : ≤ 100 nM

Form: compound = CS(=O)(=O)Nc1ccc(-c2noc(-c3cn4cc(C(F)(F)F)cc(Cl)c4n3)n2)cc1Cl [Example 122] ; EC50 = ≤ 100 nM

###

In this section, each of the compounds is paired with its reported EC50.
target: S1P1 (Homo sapiens, UniProt P21453); experiment: CNG cAMP Assay (Assay 1); assay type: cell-based; parameters: host or cells: HEK293 cells expressing the CNG channel; details: read-out: Assay 1 EC50

>  <Compound>
CC(C)(O)c1ccc(-c2noc(-c3cn4cc(C(F)(F)F)cc(Cl)c4n3)n2)c(Cl)c1 [Example 126]

>  <Reading>
100 to 500 nM

$$$$
>  <Compound>
CC(CC(=O)O)c1ccc(-c2noc(-c3cn4cc(C(F)(F)F)cc(Cl)c4n3)n2)c(Cl)c1 (stereo not shown) [Example 172]

>  <Reading>
≤ 100 nM

$$$$
>  <Compound>
OCC(O)COc1ccc(-c2noc(-c3cn4cc(C(F)(F)F)cc(Cl)c4n3)n2)c(Cl)c1 (stereo not shown) [Example 194]

>  <Reading>
≤ 100 nM

$$$$

Turning now to a further compound:
For the compound CC(CC(N)=O)c1ccc(-c2noc(-c3cn4cc(C(F)(F)F)cc(Cl)c4n3)n2)c(Cl)c1 (stereo not shown) [Example 170] , the measured EC50 on S1P1 (Homo sapiens, UniProt P21453) was ≤ 100 nM
